# Assay Target: HDAC6-catalytic domain 2 (HDAC6CD2) (Homo sapiens)
# Construct: HDAC6-catalytic domain 2 (HDAC6CD2); expressed in transfected cells
# Sequence (Q9UBN7 482-800 limits assumed): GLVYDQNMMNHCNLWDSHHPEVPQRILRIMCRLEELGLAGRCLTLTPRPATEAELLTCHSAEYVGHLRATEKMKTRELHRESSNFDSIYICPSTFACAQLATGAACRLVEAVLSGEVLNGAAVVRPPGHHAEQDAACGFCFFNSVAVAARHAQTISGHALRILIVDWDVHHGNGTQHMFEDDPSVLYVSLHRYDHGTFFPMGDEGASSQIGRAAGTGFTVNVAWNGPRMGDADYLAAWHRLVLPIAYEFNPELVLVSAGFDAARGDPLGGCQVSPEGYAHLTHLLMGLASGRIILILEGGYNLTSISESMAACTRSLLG
# Experiment: NanoBRET intracellular target engagement assay
# Type: cell-based
# Test Conditions: HeLa cells, 2 h; read-out: concentration of half maximal HDAC6 inhibition
# Experimental: For the production of transfected HeLa mono-clones stably expressing HDAC-nanoBRET fusion proteins of HDAC10 and HDAC6-catalytic domain 2 (HDAC6CD2), plasmids expressing a fusion of HDAC10 with nanoluciferase were obtained from Promega (N2170). HeLa cells (0.75 × 10^6) were seeded in a 6 cm dish and were transfected with a mix of 10 μg plasmid and 3 μL Fugene in 200 μL OptiMEM after 24 h. […]
pIC50: −log10 of the molar value.

Compound: NC(=O)CCCCC1CCSS1 (racemic) [(R/S)-LM, (R/S)-lipoamide]
Assay Target: HDAC6-catalytic domain 2 (HDAC6CD2) (Homo sapiens)
pIC50: 4.46

* * *

# Assay Target: HDAC2 (Homo sapiens, UniProt Q92769)
# Sequence (Q92769 whole entry): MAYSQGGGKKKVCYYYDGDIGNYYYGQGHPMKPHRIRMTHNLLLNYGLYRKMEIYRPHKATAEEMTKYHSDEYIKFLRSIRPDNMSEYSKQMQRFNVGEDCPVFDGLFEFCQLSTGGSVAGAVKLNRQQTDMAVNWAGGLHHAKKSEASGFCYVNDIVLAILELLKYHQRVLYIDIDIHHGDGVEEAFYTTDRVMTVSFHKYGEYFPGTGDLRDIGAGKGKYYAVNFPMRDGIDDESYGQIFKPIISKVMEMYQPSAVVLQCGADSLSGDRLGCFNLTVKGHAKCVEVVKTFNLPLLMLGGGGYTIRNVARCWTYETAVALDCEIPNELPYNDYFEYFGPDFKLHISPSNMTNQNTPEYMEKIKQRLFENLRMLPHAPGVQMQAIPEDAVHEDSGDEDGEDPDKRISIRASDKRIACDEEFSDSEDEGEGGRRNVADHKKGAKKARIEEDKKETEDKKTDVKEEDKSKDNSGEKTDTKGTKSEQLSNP
# Experiment: Chemoproteomic competition pulldown assay
# Type: binding
# Design: endogenous in cells; host or cells: SW620, MV4-11, A549 lysates
# Test Conditions: iL, MV4-11 lysate; read-out: Kd app

Compound: NC(=O)CCCCC1CCSS1 (racemic) [(R/S)-LM, (R/S)-lipoamide]
Kd, µM: 14

* * *

# Assay Target: HDAC10 (Homo sapiens)
# Construct: host or cells: HeLa mono-clones, stably expressing
# Sequence (Q969S8 whole entry): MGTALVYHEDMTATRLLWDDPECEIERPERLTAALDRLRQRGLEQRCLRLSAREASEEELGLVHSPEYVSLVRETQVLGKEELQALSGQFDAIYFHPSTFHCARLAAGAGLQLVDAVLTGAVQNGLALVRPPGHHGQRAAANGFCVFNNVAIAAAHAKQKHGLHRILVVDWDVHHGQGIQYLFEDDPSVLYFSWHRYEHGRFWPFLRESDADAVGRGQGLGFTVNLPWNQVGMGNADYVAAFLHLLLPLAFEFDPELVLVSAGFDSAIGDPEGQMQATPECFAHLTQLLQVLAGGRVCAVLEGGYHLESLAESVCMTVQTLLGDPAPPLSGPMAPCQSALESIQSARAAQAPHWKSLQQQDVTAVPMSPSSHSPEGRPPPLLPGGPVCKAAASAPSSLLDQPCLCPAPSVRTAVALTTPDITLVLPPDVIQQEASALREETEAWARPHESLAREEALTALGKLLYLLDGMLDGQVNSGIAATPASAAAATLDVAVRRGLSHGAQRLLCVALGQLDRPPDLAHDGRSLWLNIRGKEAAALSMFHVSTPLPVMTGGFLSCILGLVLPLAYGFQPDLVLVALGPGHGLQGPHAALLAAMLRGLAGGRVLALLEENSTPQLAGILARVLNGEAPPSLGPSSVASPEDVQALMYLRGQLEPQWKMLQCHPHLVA
# Experiment: Chemoproteomic competition pulldown assay
# Assay type: binding
# Test Conditions: iL, MV4-11 lysate; read-out: Kd app
pKd: −log10 of the molar value.

Compound: NC(=O)CCCCC1CCSS1 (racemic) [(R/S)-LM, (R/S)-lipoamide]
pKd: 5.30

* * *

Below, each entry is listed alongside its reported pKd.
# Assay Target: HDACs (HDAC1, HDAC2, HDAC6)
# Experiment: Chemoproteomic competition pulldown assay (HDAC panel)
# Type: binding
# Test Conditions: iL, SW620 lysate, 1 mM DTT; range over HDAC1, HDAC2, HDAC6; read-out: affinities (Kd app)
pKd: −log10 of the molar value.
Property Measured: pKd

Molecule: NC(=O)CCCCC1CCSS1 (racemic) [(R/S)-LM, (R/S)-lipoamide]
Reported: 4.48 to 5.52
//
Molecule: O=C(O)CCCCC1CCSS1 (racemic) [(R/S)-LA, (R/S)-lipoic acid]
Reported: 4.48 to 5.52
